src = the supplement of paper PMC7877785

Please go through the items and note down their self-splicing fitness (ln).
assay notes: self-splicing fitness, log relative to wild type (ln ratio); higher = more splicing; Tetrahymena group I intron in knt gene, E. coli kanamycin selection, DiMSum; sequences stand for … in CUCUCU…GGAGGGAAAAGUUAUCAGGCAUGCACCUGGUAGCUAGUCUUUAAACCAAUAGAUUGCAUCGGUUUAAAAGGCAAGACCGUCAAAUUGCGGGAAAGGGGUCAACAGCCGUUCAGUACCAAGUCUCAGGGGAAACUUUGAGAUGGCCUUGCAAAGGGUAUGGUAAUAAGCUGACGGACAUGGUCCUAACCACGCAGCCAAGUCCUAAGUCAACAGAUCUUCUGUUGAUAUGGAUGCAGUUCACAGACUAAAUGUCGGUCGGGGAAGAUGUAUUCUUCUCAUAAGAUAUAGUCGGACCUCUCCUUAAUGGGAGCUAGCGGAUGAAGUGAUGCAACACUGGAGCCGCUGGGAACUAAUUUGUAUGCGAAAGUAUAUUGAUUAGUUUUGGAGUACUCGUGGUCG;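 further: selection with 25 µg/mL kanamycin versus none on LB agar overnight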
condition: 37 °C
Quick one: just the number, no unit, thanks!

The recorded self-splicing fitness (ln) for UUAAAGCAAUAUUACGGCAU is 0.331

The recorded self-splicing fitness (ln) for CUGCAGCAAUAUUACGCCAA is -1.67

The recorded self-splicing fitness (ln) for UAUAAGCAAUAUUACGUUCG is 0.0904

The recorded self-splicing fitness (ln) for ACGUAGCAAUAUUACGAUAA is -1.51

The recorded self-splicing fitness (ln) for UGAAAGCAAUAUUACGCAGG is -1.42

The recorded self-splicing fitness (ln) for AAAAAGCAAUAUUACGCCCC is 0.308

---

assay notes: self-splicing fitness, log relative to wild type (ln ratio); higher = more splicing; Tetrahymena group I intron in knt gene, E. coli kanamycin selection, DiMSum; sequences stand for … in CUCUCU…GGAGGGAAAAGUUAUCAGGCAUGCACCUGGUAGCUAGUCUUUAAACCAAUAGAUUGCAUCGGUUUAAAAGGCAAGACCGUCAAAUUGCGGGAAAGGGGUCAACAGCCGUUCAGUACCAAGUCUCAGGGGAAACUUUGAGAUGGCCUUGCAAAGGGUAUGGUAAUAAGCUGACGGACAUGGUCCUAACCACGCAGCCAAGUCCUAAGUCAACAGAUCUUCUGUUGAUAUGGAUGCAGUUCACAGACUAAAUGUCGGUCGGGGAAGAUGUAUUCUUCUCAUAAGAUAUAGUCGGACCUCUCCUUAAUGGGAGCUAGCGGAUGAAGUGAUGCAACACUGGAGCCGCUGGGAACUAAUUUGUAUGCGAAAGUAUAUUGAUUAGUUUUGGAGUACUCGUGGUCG
condition: 30 °C
measured metric: self-splicing fitness (ln)
Quick one: just the number, no unit, thanks!

The recorded self-splicing fitness (ln) for CUCCAGCAAUAUUACGGCCU is -3.5

The recorded self-splicing fitness (ln) for AACUAGCAAUAUUACGACUC is -0.19

The recorded self-splicing fitness (ln) for AAAUAGCAAUAUUACGGCCU is -0.218

The recorded self-splicing fitness (ln) for ACUGAGCAAUAUUACGCUAU is -3.58

The recorded self-splicing fitness (ln) for UCACAGCAAUAUUACGUUCU is -3.63

The recorded self-splicing fitness (ln) for ACACAGCAAUAUUACGGGGU is -3.14

The recorded self-splicing fitness (ln) for UCUUAGCAAUAUUACGACCA is -1.32

The recorded self-splicing fitness (ln) for AAGCAGCAAUAUUACGGCAU is -0.221

The recorded self-splicing fitness (ln) for CCUUAGCAAUAUUACGGAUG is -1.72

The recorded self-splicing fitness (ln) for GAGUAGCAAUAUUACGGUGG is -3.37

The recorded self-splicing fitness (ln) for GAGUAGCAAUAUUACGCGGA is -2.61

The recorded self-splicing fitness (ln) for ACAGAGCAAUAUUACGCAAG is -3.99

The recorded self-splicing fitness (ln) for CGCAAGCAAUAUUACGCGGG is -4.14

The recorded self-splicing fitness (ln) for CUUGAGCAAUAUUACGCACG is -3.3

The recorded self-splicing fitness (ln) for CAUUAGCAAUAUUACGGAGA is -3.12

The recorded self-splicing fitness (ln) for GGCAAGCAAUAUUACGCCCA is -1.95

The recorded self-splicing fitness (ln) for AUCCAGCAAUAUUACGUGCU is -2.83

The recorded self-splicing fitness (ln) for GACCAGCAAUAUUACGGUUC is -5.29

The recorded self-splicing fitness (ln) for CCCCAGCAAUAUUACGGCAU is -3.43

The recorded self-splicing fitness (ln) for AUAAAGCAAUAUUACGAUCG is -0.0352

The recorded self-splicing fitness (ln) for AGGAAGCAAUAUUACGUUCA is -0.532

The recorded self-splicing fitness (ln) for CCUUAGCAAUAUUACGACCU is -2.79

The recorded self-splicing fitness (ln) for UUGGAGCAAUAUUACGUCAA is -2.19

The recorded self-splicing fitness (ln) for GACAAGCAAUAUUACGACCU is 0.335

The recorded self-splicing fitness (ln) for UCAUAGCAAUAUUACGAGCG is -1.95

The recorded self-splicing fitness (ln) for GAACAGCAAUAUUACGAAAC is -0.693

The recorded self-splicing fitness (ln) for GUUAAGCAAUAUUACGCUGA is -2.98

The recorded self-splicing fitness (ln) for GCUAAGCAAUAUUACGUAAA is -0.877

The recorded self-splicing fitness (ln) for UGUUAGCAAUAUUACGACAU is -2.59

The recorded self-splicing fitness (ln) for CACAAGCAAUAUUACGAACU is -3.64

The recorded self-splicing fitness (ln) for CUAAAGCAAUAUUACGUGUC is -3.88

The recorded self-splicing fitness (ln) for GCCAAGCAAUAUUACGGCGC is -1.36

The recorded self-splicing fitness (ln) for CCCCAGCAAUAUUACGAUAG is -3.16

The recorded self-splicing fitness (ln) for CGAGAGCAAUAUUACGGCAC is -3.72

The recorded self-splicing fitness (ln) for UGUCAGCAAUAUUACGCGUA is -0.0687

The recorded self-splicing fitness (ln) for UAUCAGCAAUAUUACGGACA is 0.27

The recorded self-splicing fitness (ln) for GAGUAGCAAUAUUACGUCUU is -1.94

The recorded self-splicing fitness (ln) for GCUGAGCAAUAUUACGAUAC is -1.15

The recorded self-splicing fitness (ln) for CUAUAGCAAUAUUACGCGCC is -1.01

The recorded self-splicing fitness (ln) for UUUUAGCAAUAUUACGCUCC is -1.4

The recorded self-splicing fitness (ln) for CCAAAGCAAUAUUACGUGUU is -3.49

The recorded self-splicing fitness (ln) for ACGUAGCAAUAUUACGACUU is -0.145

The recorded self-splicing fitness (ln) for UCUGAGCAAUAUUACGCAGC is -2.75

The recorded self-splicing fitness (ln) for GGUCAGCAAUAUUACGGAGU is -0.947

The recorded self-splicing fitness (ln) for CCAGAGCAAUAUUACGGGCC is -2.83
